B1: PPFIA4 (parent)
chain: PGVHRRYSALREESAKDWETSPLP

variants of: B1; assay: protein stability index of a GFP-peptide fusion (GPS, HEK-293T) (PSI 1-6); higher = more stable; conditions: c terminus: a fixed tail appended;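 further: lentivirally expressed fusions sorted by FACS into six bins by GFP to DsRed ratio, PSI derived from sequencing read proportions per bin multiplied by bin number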
Measured parameter: protein stability index
Keep it simple and answer with nothing but the number.

## Input Given the entry Y7S , report its measured protein stability index.
## Output 4.58

## Input P24L , same question.
## Output 3.62

## Input L10T , same question.
## Output 4.97

## Input P22L , same question.
## Output 3.67

## Input K16I , same question.
## Output 3.96
